- measurement-protocol: folding enthalpy; higher = less favourable; fluorescence melt of hairpins on a sequencing array, two-state fit
- protocol-conditions: sodium 0.088 M
Would you kindly list folding enthalpy for each of these sequences?
Numbers only, in kcal/mol.

Take a look at these entries with their results.
seq_string="GCTGGACCGAAAGGTAGC (((..(((....))))))" test_readout="folding enthalpy" obs_value=-18.5
seq_string="ATTCAGAAATGAAT (((((....)))))" test_readout="folding enthalpy" obs_value=-11.5
seq_string="GCGTTACAACGC ((((....))))" test_readout="folding enthalpy" obs_value=-26.4
seq_string="GATCTAGACTAGATC ((((((...))))))" test_readout="folding enthalpy" obs_value=-36.6
seq_string="AGGTCGAAAGACCT (((((....)))))" test_readout="folding enthalpy" obs_value=-22.1
seq_string="GCGTAATCGAAAGATCGC (((..(((....))))))" test_readout="folding enthalpy" obs_value=-25.1
seq_string="GTGACTCGAAAGAGGCAC (((.(((....))).)))" test_readout="folding enthalpy" obs_value=-34.4
seq_string="GAAGCCGAAAGGCAATTC ((((((....)))..)))" test_readout="folding enthalpy" obs_value=-13.7
seq_string="CGAAACGGAAACGTTCG (((.(((....))))))" test_readout="folding enthalpy" obs_value=-25.9
seq_string="GATCAACACCTTGATC ((((((....))))))" test_readout="folding enthalpy" obs_value=-32.7

Field: folding enthalpy. Fill in for each record below.
1. GATCCTGGCAAGGATC ((((((....))))))
2. GCGTCCGAAAGGATACGC ((((((....)))..)))

A)
-44.6
-29.2

Source: the array DNA melting data of Ke et al. (doi:10.1101/2024.01.08.574731)
